Molecular target: PTPN2 (HiBIT-PTPN2 in 293T.109 cells) (Homo sapiens)
Construct: expressed in transfected cells; host or cells: 293T.109 (293T WT from ATCC)
Sequence (P17706 1-415): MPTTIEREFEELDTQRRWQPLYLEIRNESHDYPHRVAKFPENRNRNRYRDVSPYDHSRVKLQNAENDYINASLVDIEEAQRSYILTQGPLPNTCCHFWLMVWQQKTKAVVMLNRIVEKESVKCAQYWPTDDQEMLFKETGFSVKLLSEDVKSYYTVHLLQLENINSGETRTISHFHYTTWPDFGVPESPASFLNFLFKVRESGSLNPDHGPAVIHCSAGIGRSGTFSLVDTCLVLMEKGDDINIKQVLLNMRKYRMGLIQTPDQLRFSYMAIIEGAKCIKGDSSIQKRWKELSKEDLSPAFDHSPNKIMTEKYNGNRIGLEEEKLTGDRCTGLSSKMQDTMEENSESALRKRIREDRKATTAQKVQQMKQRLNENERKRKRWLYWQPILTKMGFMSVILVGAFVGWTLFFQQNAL
Assay: HiBiT Degradation 293T.109 PTPN2 (Nano-Glo HiBiT Lytic Assay)
Type: cell-based
Conditions: 24.0 hours
Method: Dulbecco's modified Eagle medium (DMEM) without phenol red and fetal bovine serum (FBS) were purchased from Gibco (Grand Island, NY, USA). Nano-Glo® HiBIT Lytic Assay System was purchased from Promega (Madison, WI, USA). […] PTPN2 degradation was determined based on quantification of luminescent signal using Nano-Glo® HiBIT Lytic Assay kit. […] Luminescence was acquired on EnVision™ Multilabel Reader (PerkinElmer, Santa Clara, CA, USA).
Readout kind: DC50

Examples from the recorded data:
| Molecule | DC50 |
| --- | --- |
| Cn1c(=O)n(C2CCC(=O)NC2=O)c2ccc(Nc3cccc(CC(=O)Nc4cccc(CS(=O)(=O)N5CC[C@H](Nc6cccc(-c7sc(C(=O)O)c(OCC(=O)O)c7Cl)c6)CC5(C)C)c4)c3)cc21 (stereo partly drawn) [Example 191] | 50 to 200 nM |
| Cn1c(=O)n(C2CCC(=O)NC2=O)c2ccc(C3CCN(C(=O)Nc4cccc(CS(=O)(=O)N5CC[C@H](Nc6cccc(-c7sc(C(=O)O)c(OCC(=O)O)c7Cl)c6)CC5(C)C)c4F)CC3)cc21 (stereo partly drawn) [Example 125] | 50 to 200 nM |

Field: next molecule
Recorded DC50 (molecule CC(C)(c1cccc(NC(=O)CCCCCCNC(=O)CNc2cccc3c2CN(C2CCC(=O)NC2=O)C3=O)c1)S(=O)(=O)N1CCC(Nc2cccc(-c3sc(C(=O)O)c(OCC(=O)O)c3Cl)c2)CC1 (stereo not drawn) [Example 40] ): 200 to 1000 nM
